measured-on: Peroxisome proliferator-activated receptor gamma (Homo sapiens)
Sequence (P37231 whole entry, the tested form may be a part): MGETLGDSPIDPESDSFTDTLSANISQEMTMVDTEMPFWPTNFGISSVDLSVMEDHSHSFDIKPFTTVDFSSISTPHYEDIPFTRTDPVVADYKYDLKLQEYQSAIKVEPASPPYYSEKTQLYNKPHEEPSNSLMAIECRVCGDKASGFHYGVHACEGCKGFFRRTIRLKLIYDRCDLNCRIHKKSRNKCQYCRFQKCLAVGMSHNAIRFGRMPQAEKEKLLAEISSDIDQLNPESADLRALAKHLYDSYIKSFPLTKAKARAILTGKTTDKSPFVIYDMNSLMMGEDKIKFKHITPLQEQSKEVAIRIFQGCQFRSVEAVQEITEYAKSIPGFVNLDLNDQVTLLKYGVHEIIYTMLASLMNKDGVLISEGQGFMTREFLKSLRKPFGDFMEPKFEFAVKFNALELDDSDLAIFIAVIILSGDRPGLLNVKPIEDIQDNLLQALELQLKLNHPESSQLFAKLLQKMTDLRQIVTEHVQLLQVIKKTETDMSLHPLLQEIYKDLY
experimental-protocol: Binding affinity at human PPARgamma by fluorescence polarization
Known pIC50 of a selection of compounds
Notebook: values listed as pIC50 are -log10 of the concentration (mol/L).

Examples with answers:
>>> df
                                   compound                               measured_on  measurement_name  data_value
0  Cc1oc(-c2ccccc2)nc1CCOc1cccc(C2=C(CC(=O)O)CCN(C(=O)Oc3ccccc3)C2)c1  Peroxisome proliferator-activated receptor gamma (Homo sapiens)             pIC50        7.47
1  Cc1oc(-c2ccccc2)nc1CCOc1cccc(C2CN(C(=O)Oc3ccccc3)CCC2CC(=O)O)c1 (racemic)  Peroxisome proliferator-activated receptor gamma (Homo sapiens)             pIC50        5.11
2  Cc1oc(-c2ccccc2)nc1CCOc1cccc(CC2CN(C(=O)OCC(C)C)CCC2C(=O)O)c1 (racemic)  Peroxisome proliferator-activated receptor gamma (Homo sapiens)             pIC50        5.22
3  Cc1oc(-c2ccccc2)nc1CCOc1ccc(CC2=C(C(=O)O)CCN(C(=O)OCC(C)C)C2)cc1  Peroxisome proliferator-activated receptor gamma (Homo sapiens)             pIC50        5.52
4  Cc1oc(-c2ccccc2)nc1CCOc1ccc(CCC2=C(C(=O)O)CCN(C(=O)OCC(C)C)C2)cc1  Peroxisome proliferator-activated receptor gamma (Homo sapiens)             pIC50        6.96

Lab note: Cc1oc(-c2ccccc2)nc1CCOc1cccc(C2CN(C(=O)OCC(C)C)CCC2CC(=O)O)c1 (racemic) gave pIC50 of 5.51

Looking up `Cc1oc(-c2ccccc2)nc1CCOc1cccc(CC2=C(C(=O)O)CCN(c3nccc(C(F)(F)F)n3)C2)c1` , I see its pIC50 listed as 5.86

----------
measured-on: Peroxisome proliferator-activated receptor gamma (Homo sapiens)
experimental-protocol: Binding affinity at human PPARgamma by fluorescence polarization
measurement-name: IC50 (nM)
Only the number, expressed in nM, is required.

                                   compound  data_value
0  Cc1oc(-c2ccccc2)nc1CCOc1ccc(C2=C(C(=O)O)CCN(C(=O)OCC(C)C)C2)cc1        7400
1  Cc1oc(-c2ccccc2)nc1CCOc1ccc(CC2CN(C(=O)OCC(C)C)CCC2C(=O)O)cc1 (racemic)        1250
2  Cc1oc(-c2ccccc2)nc1CCOc1cccc(CC2=C(C(=O)O)CCN(C(=O)OCc3ccccc3)C2)c1        4730

Kindly review the next compound as well.
Lab book: IC50 of Cc1oc(-c2ccccc2)nc1CCOc1ccc(CCC2CN(C(=O)OCC(C)C)CCC2C(=O)O)cc1 (racemic) noted as 450

----------
Measured IC50 accompanies every entry in the list below.
measured-on: Peroxisome proliferator-activated receptor alpha (Homo sapiens) (UniProt Q07869)
Sequence (Q07869 whole entry, looked up): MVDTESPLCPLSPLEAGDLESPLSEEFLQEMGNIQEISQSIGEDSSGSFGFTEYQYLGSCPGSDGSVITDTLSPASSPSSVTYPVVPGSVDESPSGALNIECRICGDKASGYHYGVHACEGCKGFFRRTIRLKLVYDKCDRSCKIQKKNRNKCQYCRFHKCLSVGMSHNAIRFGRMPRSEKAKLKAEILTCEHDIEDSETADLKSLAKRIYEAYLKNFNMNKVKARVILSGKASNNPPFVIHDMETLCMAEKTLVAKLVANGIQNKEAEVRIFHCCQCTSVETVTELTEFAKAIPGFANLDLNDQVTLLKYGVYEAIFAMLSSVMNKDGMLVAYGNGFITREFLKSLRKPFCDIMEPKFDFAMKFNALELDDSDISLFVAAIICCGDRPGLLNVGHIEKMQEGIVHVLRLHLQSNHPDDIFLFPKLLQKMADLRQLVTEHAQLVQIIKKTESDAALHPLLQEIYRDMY
experimental-protocol: Binding affinity at human PPARalpha by fluorescence polarization
Give the quantity in nM, number only.

The cases that follow already have their IC50 on record.
>>> df
                                   compound  measurement_name  reading_unit  data_value
0  Cc1oc(-c2ccccc2)nc1CCOc1cccc(CC2=C(C(=O)O)CCN(c3nccc(C(F)(F)F)n3)C2)c1              IC50            nM        1330
1  Cc1oc(-c2ccccc2)nc1CCOc1cccc(CC2CN(C(=O)OCC(C)C)CCC2C(=O)O)c1 (racemic)              IC50            nM        1370
2  Cc1oc(-c2ccccc2)nc1CCOc1cccc(C2CN(C(=O)OCC(C)C)CCC2C(=O)O)c1 (racemic)              IC50            nM        7620

So for `Cc1oc(-c2ccccc2)nc1CCOc1ccc(CC2=C(C(=O)O)CCN(C(=O)OCC(C)C)C2)cc1` , the logged IC50 turned out to be 1170

----------
measured-on: Peroxisome proliferator-activated receptor gamma (Homo sapiens)
experimental-protocol: Agonist activity at human PPARgamma expressed in HEK293 cells assessed as luciferase activity by GAL4 transactivation assay
Measured pEC50 of individual entries
# reply with the number alone; pEC50 is -log10 of concentration in mol/L

In [3]: df
Out[3]:
                                   compound                               measured_on  data_value
0  Cc1oc(-c2ccccc2)nc1CCOc1ccc(CC2CN(C(=O)OCC(C)C)CCC2C(=O)O)cc1 (racemic)  Peroxisome proliferator-activated receptor gamma (Homo sapiens)        6.59
1  Cc1oc(-c2ccccc2)nc1CCOc1ccc(C[C@@H]2CN(c3nccc(C(F)(F)F)n3)C[C@@H]2C(=O)O)cc1  Peroxisome proliferator-activated receptor gamma (Homo sapiens)        8.15
2  Cc1oc(-c2ccccc2)nc1CCOc1cccc(C2=C(CC(=O)O)CCN(C(=O)OCC(C)C)C2)c1  Peroxisome proliferator-activated receptor gamma (Homo sapiens)        7.74
3  CCCOC(=O)N1CCC(C(=O)O)=C(Cc2cccc(OCCc3nc(-c4ccccc4)oc3C)c2)C1  Peroxisome proliferator-activated receptor gamma (Homo sapiens)        6.74

Summary for this compound, Cc1oc(-c2ccccc2)nc1CCOc1ccc(CCC2CN(C(=O)OCC(C)C)CCC2C(=O)O)cc1 (racemic) : pEC50 is 6.58

----------
The entries below are paired with their reported IC50.
measured-on: Peroxisome proliferator-activated receptor gamma (Homo sapiens) (UniProt P37231)
experimental-protocol: Binding affinity at human PPARgamma by fluorescence polarization
Quick reminder: number only, in nM, skip the unit.

>>> print(df.to_string())
                                   compound  reading_unit  data_value
0  Cc1oc(-c2ccccc2)nc1CCOc1cccc(CC2=CN(C(=O)OCc3ccccc3)CCC2C(=O)O)c1 (racemic)            nM         133
1  Cc1oc(-c2ccccc2)nc1CCOc1cccc(CC2=CN(c3nccc(C(F)(F)F)n3)CCC2C(=O)O)c1 (racemic)            nM         287

Per the records, this compound ( `Cc1oc(-c2ccccc2)nc1CCOc1cccc(C2=C(CC(=O)O)CCN(C(=O)OCC(C)C)C2)c1` ) has IC50 equal to 49

----------
measured-on: Peroxisome proliferator-activated receptor alpha (Homo sapiens)
Sequence (Q07869 whole entry, the tested form may be a part): as the sequence (Q07869 whole entry, looked up) above
experimental-protocol: Binding affinity at human PPARalpha by fluorescence polarization
measurement-name: pIC50
Answer as the number alone; pIC50 is minus log10 of concentration in mol/L.

                                   compound                               measured_on  measurement_name  data_value
0  Cc1oc(-c2ccccc2)nc1CCOc1cccc(CC2=CN(c3nccc(C(F)(F)F)n3)CCC2C(=O)O)c1 (racemic)  Peroxisome proliferator-activated receptor alpha (Homo sapiens)             pIC50        5.97
1  Cc1oc(-c2ccccc2)nc1CCOc1ccc(CCC2=C(C(=O)O)CCN(C(=O)OCC(C)C)C2)cc1  Peroxisome proliferator-activated receptor alpha (Homo sapiens)             pIC50        6.59
2  Cc1oc(-c2ccccc2)nc1CCOc1cccc(C2CN(C(=O)Oc3ccccc3)CCC2CC(=O)O)c1 (racemic)  Peroxisome proliferator-activated receptor alpha (Homo sapiens)             pIC50        5.09
3  Cc1oc(-c2ccccc2)nc1CCOc1ccc(CCC2CN(C(=O)OCC(C)C)CCC2C(=O)O)cc1 (racemic)  Peroxisome proliferator-activated receptor alpha (Homo sapiens)             pIC50        6.15

Let's switch to this compound now.
pIC50 measured on Cc1oc(-c2ccccc2)nc1CCOc1ccc(CC2CN(C(=O)OCC(C)C)CCC2C(=O)O)cc1 (racemic) = 6.67

----------
Each entry below carries its recorded pEC50.
measured-on: Peroxisome proliferator-activated receptor alpha (Homo sapiens)
experimental-protocol: Agonist activity at human PPARalpha expressed in HEK293 cells assessed as luciferase activity by GAL4 transactivation assay
Assay type: functional, cell-based
Worth noting: pEC50 values are minus log10 of concentrations stated in mol/L.

Some compounds with recorded pEC50:
                                   compound  measurement_name  data_value
0  Cc1oc(-c2ccccc2)nc1CCOc1ccc(CC2CN(C(=O)OCC(C)C)CCC2C(=O)O)cc1 (racemic)             pEC50        8.30
1  Cc1oc(-c2ccccc2)nc1CCOc1cccc(CC2=CN(c3nccc(C(F)(F)F)n3)CCC2C(=O)O)c1 (racemic)             pEC50        7.64
2  Cc1oc(-c2ccccc2)nc1CCOc1cccc(C2=C(CC(=O)O)CCN(C(=O)OCC(C)C)C2)c1             pEC50        8.22
3  Cc1oc(-c2ccccc2)nc1CCOc1ccc(CCC2=C(C(=O)O)CCN(C(=O)OCC(C)C)C2)cc1             pEC50        7.25
4  COc1ccc(OC(=O)N(CC(=O)O)Cc2ccc(OCCc3nc(-c4ccccc4)oc3C)cc2)cc1             pEC50        5.85

For reference, reported pEC50 for Cc1oc(-c2ccccc2)nc1CCOc1cccc(CC2CN(C(=O)OCC(C)C)CCC2C(=O)O)c1 (racemic) stands at 7.74

Value of measured pEC50 for the entry Cc1oc(-c2ccccc2)nc1CCOc1cccc(C2CN(C(=O)Oc3ccccc3)CCC2CC(=O)O)c1 (racemic) : 6.77
